- assay: Dissociation constant, pKa of the compound by potentiometric titration analysis
- Type: physicochemical
Quick reference for pKa among some molecules

As a guide, the following entries are already answered.
Nc1ccncn1 | 5.71
Cc1ncc(C)c(N)n1 | 6.5

Turning to the following molecule.
Lookup: Which value of pKa has been reported for Cc1ncc(CN2CSC(CCO)C2C)c(N)n1 (stereo not drawn) in the records?
Found: 7.6
